Origin of measurements: patent US20220040297A1

- tgt: CD3ε homodimer protein (human, UniProt P07766 23-126, limits assumed)
- Sequence (P07766 23-126 limits assumed): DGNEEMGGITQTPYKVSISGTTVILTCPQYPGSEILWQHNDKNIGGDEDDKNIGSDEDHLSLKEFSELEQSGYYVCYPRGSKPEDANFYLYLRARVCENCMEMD
- protocolDetails: SPR, immobilized CD3ε homodimer;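 note: biacore T200 surface plasmon resonance at 25 °C, antibody variants flowed as analytes over amine-coupled CD3ε homodimer on a CM4 chip, variant binding amount divided by that of GLS3000 antibody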
Listed binders paired with reported ratio of amounts bound (vs GLS3000)

>  <binder>
GLS3000 S56L (antibody, name in Kabat numbering, V domains shown, one-arm format as m2) VH: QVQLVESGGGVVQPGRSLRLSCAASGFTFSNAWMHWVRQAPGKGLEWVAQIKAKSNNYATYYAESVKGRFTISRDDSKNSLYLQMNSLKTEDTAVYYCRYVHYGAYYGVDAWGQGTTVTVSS VL: DIVMTQSPLSLPVTPGEPASISCRSSQSLVHSNRNTYLHWYQQKPGQAPRLLIYKVSNRFLGVPDRFSGSGSGTDFTLKISRVEAEDVGVYYCGQGTQVPYTFGQGTKLEIK

>  <ratio of amounts bound (vs GLS3000)>
1.02

$$$$
>  <binder>
GLS3000 S27aP (antibody, name in Kabat numbering, V domains shown, one-arm format as m2) VH: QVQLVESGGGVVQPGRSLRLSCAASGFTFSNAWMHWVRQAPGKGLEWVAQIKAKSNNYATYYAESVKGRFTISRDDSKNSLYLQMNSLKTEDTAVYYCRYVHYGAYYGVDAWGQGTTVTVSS VL: DIVMTQSPLSLPVTPGEPASISCRSSQPLVHSNRNTYLHWYQQKPGQAPRLLIYKVSNRFSGVPDRFSGSGSGTDFTLKISRVEAEDVGVYYCGQGTQVPYTFGQGTKLEIK

>  <ratio of amounts bound (vs GLS3000)>
0.99

$$$$
